Protocol Details: Clearance in Beagle dog at 0.3 mg/kg, iv
Type: ADME, organism-based, Canis lupus familiaris
Parameters: dose 0.3 mg/kg, route intravenous
Conditions Used: in vivo
Recorded Metric: clearance (mL/min/kg)
Supply the numeric figure in mL/min/kg, leaving out any unit text.

[ask] I am curious: what clearance value has been reported for "Cc1cn2c(-c3cn[nH]c3)cnc2c(Nc2cc(CN3CCC(F)(F)C3)ns2)n1.Cl" ?
[reply] 31

* * *

Protocol Details: Clearance in Sprague-Dawley rat at 10 mg/kg, iv
Format: ADME, organism-based
Parameters: dose 10 mg/kg, route intravenous
Conditions Used: in vivo
Reported clearance values for a set of compounds
Your answer should be a number followed by the unit of measure.

Cl.[2H]C([2H])(c1cc(Nc2nc(C)cn3c(-c4cn[nH]c4)cnc23)sn1)N1CCC(F)(F)C1 :: 6.3 mL/min/kg

// moving on: another record for clearance
[ask] Record request: clearance value, item "Cc1cn2c(-c3cn[nH]c3)cnc2c(Nc2cc(CN3CCC(F)(F)C3)ns2)n1.Cl"
[reply] 33 mL/min/kg

* * *

System Tested: Testis-specific serine/threonine-protein kinase 2 (Homo sapiens)
Sequence (Q96PF2 whole entry): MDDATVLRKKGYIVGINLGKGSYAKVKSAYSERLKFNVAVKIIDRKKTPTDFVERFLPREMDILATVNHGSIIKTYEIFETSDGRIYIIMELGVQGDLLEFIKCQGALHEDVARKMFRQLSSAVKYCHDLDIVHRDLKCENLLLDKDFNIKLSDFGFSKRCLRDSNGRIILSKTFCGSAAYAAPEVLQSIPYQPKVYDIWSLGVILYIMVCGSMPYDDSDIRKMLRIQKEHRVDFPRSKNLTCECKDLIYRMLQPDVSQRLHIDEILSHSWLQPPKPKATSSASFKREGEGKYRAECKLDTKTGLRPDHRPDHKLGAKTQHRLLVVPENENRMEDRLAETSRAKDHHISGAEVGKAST
Recorded Metric: IC50

[ask] Checklist item: IC50 tested on Testis-specific serine/threonine-protein kinase 2 (Homo sapiens), entry "Cc1cn2c(-c3cn[nH]c3)cnc2c(Nc2cc(CN3CCC(F)(F)C3)ns2)n1.Cl" , value?
[reply] > 100 nM

* * *

Protocol Details: AUC in CD1 mouse at 50 mg/kg, po
Assay type: ADME, organism-based
Set-up: dose 50 mg/kg, route oral
Conditions Used: plasma
Measured AUC accompanies every entry in the list below.
Just the number please, in µM·h, no unit attached.

Use the examples below as a reference point.
Cc1cn2c(-c3cn[nH]c3)cnc2c(Nc2cc(CN3CCC(F)CC3)ns2)n1.Cl :: 1.2
Cc1cn2c(-c3cn[nH]c3)cnc2c(Nc2cc(CNCCC(F)(F)F)ns2)n1.Cl :: 11.1
Cc1cn2c(-c3cn[nH]c3)cnc2c(Nc2cc(CN3CC(F)(F)C3)ns2)n1.O=C(O)C(F)(F)F :: 7.1

Pending molecule:
[ask] Need AUC, item "Cc1cn2c(-c3cn[nH]c3)cnc2c(Nc2cc(CN3CCC(F)(F)C3)ns2)n1.Cl"
[reply] 9.4

* * *

Protocol Details: Plasma clearance in rat
Format: ADME, organism-based
Recorded Metric: clearance

Cl.[2H]C([2H])(c1cc(Nc2nc(C)cn3c(-c4cn[nH]c4)cnc23)sn1)N1CCCCC1 :: 35 mL/min/kg
Cl.[2H]C([2H])(c1cc(Nc2nc(C)cn3c(-c4cn[nH]c4)cnc23)sn1)N1CCC(F)(F)C1 :: 6.3 mL/min/kg
Cc1cn2c(-c3cn[nH]c3)cnc2c(Nc2cc(CNCCC(F)(F)F)ns2)n1.Cl :: 12 mL/min/kg

[ask] // clearance lookup, key: "Cc1cn2c(-c3cn[nH]c3)cnc2c(Nc2cc(CN3CCC(F)(F)C3)ns2)n1.Cl"
[reply] 33 mL/min/kg

[ask] Give its clearance value. Item: "Cc1cn2c(-c3cn[nH]c3)cnc2c(Nc2cc(CN3CCCCC3)ns2)n1.Cl"
[reply] 80 mL/min/kg

[ask] Given the molecule "Cl.[2H]C([2H])(NCCC(F)(F)F)c1cc(Nc2nc(C)cn3c(-c4cn[nH]c4)cnc23)sn1" , what is its reported clearance?
[reply] 5.1 mL/min/kg

# credit: ChEMBL document CHEMBL1649074
